Ka listing for selected binders.
systemName: T1, human IgE; monoclonal antibody SE44 (human, UniProt P01854-1 1-428)
T1 construct: domain: human e constant region; also called IgE (SE44); human monoclonal IgE (SE44)
experimentNotes: BIAcore SPR, Kaff from kass and kdiss
Write the answer as a number in M⁻¹, unit excluded.

Field: example entries. Status: answers known.
binder	measureUnit	Ka
reshaped human C21 antibody C21-H1/L2 (antibody, V domains shown, C21-L2 is C21-L1 with aspartic acid instead of serine at position 60) VH: QVQLVQSGAEVKKPGASVKVSCKASGYTFSMYWLEWVKQRPGHGLEWVGEISPGTFTTNYNEKFKAKATFTADTSTNTAYMELSSLTSEDTAVYYCARFSHFSGSNYDYFDYWGQGTLVTVSS VL: DILLTQSPGTLSLSPGERATLSCRASQSIGTNIHWYQQKPGQAPRLLIKYASESISGIPDRFSGSGSGTDFTLTISRLEPEDFAMYYCQQSDSWPTTFGQGTKVEIK	M⁻¹	4.9e+09
reshaped human C21 antibody C21-H1/L3 (antibody, V domains shown, C21-L3 is C21-L1 with Glu instead of Asp at position 1 and Val instead of Leu at position 3) VH: QVQLVQSGAEVKKPGASVKVSCKASGYTFSMYWLEWVKQRPGHGLEWVGEISPGTFTTNYNEKFKAKATFTADTSTNTAYMELSSLTSEDTAVYYCARFSHFSGSNYDYFDYWGQGTLVTVSS VL: EIVLTQSPGTLSLSPGERATLSCRASQSIGTNIHWYQQKPGQAPRLLIKYASESISGIPSRFSGSGSGTDFTLTISRLEPEDFAMYYCQQSDSWPTTFGQGTKVEIK	M⁻¹	4.7e+09
reshaped human C21 antibody C21-H3/L1 (antibody, V domains shown) VH: QVQLVQSGAEVKKPGASVKVSCKASGYTFSMYWLEWVRQAPGHGLEWVGEISPGTFTTNYNEKFKARATFTADTSTNTAYMELSSLRSEDTAVYYCARFSHFSGSNYDYFDYWGQGTLVTVSS VL: DILLTQSPGTLSLSPGERATLSCRASQSIGTNIHWYQQKPGQAPRLLIKYASESISGIPSRFSGSGSGTDFTLTISRLEPEDFAMYYCQQSDSWPTTFGQGTKVEIK	M⁻¹	1.32e+10
reshaped human C21 antibody C21-Hay3/L3 (antibody, V domains shown) VH: QVQLVQSGAEVKKPGASVKVSCKASGYTFSMYWLEWVRQAPGQRLEWMGEISPGTFTTNYNEKFKARATFTADTSASTAYMELSSLRSEDTAVYYCARFSHFSGSNYDYFDYWGQGTLVTVSS VL: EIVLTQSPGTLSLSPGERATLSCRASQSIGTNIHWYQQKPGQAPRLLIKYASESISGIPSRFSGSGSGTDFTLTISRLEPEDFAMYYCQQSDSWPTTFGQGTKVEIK	M⁻¹	1.6e+09
reshaped human C21 antibody C21-H1/L1 (antibody, V domains shown) VH: QVQLVQSGAEVKKPGASVKVSCKASGYTFSMYWLEWVKQRPGHGLEWVGEISPGTFTTNYNEKFKAKATFTADTSTNTAYMELSSLTSEDTAVYYCARFSHFSGSNYDYFDYWGQGTLVTVSS VL: DILLTQSPGTLSLSPGERATLSCRASQSIGTNIHWYQQKPGQAPRLLIKYASESISGIPSRFSGSGSGTDFTLTISRLEPEDFAMYYCQQSDSWPTTFGQGTKVEIK	M⁻¹	8.7e+09

Query: So what does the record say about Ka for reshaped human C21 antibody C21-H3/L3 (antibody, V domains shown) VH: QVQLVQSGAEVKKPGASVKVSCKASGYTFSMYWLEWVRQAPGHGLEWVGEISPGTFTTNYNEKFKARATFTADTSTNTAYMELSSLRSEDTAVYYCARFSHFSGSNYDYFDYWGQGTLVTVSS VL: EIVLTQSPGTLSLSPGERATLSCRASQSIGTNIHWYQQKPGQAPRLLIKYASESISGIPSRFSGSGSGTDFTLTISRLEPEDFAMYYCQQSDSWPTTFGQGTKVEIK ?
Result: 7.4e+09

Query: Which Ka is reported for this binder? reshaped human C21 antibody C21-Hay3/L2 (antibody, V domains shown) VH: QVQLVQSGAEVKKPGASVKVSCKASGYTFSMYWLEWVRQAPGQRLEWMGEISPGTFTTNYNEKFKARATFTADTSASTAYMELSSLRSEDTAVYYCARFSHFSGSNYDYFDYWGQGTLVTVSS VL: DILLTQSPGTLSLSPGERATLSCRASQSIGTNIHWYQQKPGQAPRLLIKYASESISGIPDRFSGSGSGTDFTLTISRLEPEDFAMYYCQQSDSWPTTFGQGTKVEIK
Result: 8.1e+09

Query: # lookup: Ka of reshaped human C21 antibody C21-Hay3/L1 (antibody, V domains shown) VH: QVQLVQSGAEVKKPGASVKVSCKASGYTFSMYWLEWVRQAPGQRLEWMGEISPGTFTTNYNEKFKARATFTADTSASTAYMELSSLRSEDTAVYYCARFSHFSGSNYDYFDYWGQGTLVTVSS VL: DILLTQSPGTLSLSPGERATLSCRASQSIGTNIHWYQQKPGQAPRLLIKYASESISGIPSRFSGSGSGTDFTLTISRLEPEDFAMYYCQQSDSWPTTFGQGTKVEIK
Result: 6.1e+09

Query: Entry under review: reshaped human C21 antibody C21-H3/L2 (antibody, V domains shown) VH: QVQLVQSGAEVKKPGASVKVSCKASGYTFSMYWLEWVRQAPGHGLEWVGEISPGTFTTNYNEKFKARATFTADTSTNTAYMELSSLRSEDTAVYYCARFSHFSGSNYDYFDYWGQGTLVTVSS VL: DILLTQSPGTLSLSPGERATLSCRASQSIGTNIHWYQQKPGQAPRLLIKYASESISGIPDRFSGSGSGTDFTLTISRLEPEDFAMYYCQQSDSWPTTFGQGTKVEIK . Reported Ka?
Result: 5.7e+09
